These entries and their values trace back to paper PMC3827738.

# measuredTarget: cytochrome bo3 (cbo3), ubiquinol oxidase (Escherichia coli, UniProt P0ABI8)
# Sequence (P0ABI8 whole entry): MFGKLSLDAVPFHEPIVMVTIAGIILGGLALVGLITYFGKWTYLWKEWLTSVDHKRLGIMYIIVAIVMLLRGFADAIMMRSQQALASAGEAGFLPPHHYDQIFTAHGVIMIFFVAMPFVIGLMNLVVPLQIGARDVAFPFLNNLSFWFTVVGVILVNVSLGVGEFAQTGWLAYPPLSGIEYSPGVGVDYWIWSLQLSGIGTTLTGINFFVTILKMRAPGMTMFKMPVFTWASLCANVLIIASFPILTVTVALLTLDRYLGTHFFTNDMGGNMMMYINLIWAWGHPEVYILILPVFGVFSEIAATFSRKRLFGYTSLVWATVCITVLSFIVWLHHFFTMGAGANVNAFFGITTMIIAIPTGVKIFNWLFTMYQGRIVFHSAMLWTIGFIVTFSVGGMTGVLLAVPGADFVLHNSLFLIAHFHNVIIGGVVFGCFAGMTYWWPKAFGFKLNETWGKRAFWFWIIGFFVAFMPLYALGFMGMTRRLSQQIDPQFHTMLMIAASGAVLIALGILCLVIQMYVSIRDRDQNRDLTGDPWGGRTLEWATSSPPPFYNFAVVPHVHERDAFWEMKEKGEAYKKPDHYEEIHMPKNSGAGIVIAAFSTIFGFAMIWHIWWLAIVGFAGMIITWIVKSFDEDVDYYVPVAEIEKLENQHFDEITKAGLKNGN
# Sequence (P0ABJ1 25-315 partner): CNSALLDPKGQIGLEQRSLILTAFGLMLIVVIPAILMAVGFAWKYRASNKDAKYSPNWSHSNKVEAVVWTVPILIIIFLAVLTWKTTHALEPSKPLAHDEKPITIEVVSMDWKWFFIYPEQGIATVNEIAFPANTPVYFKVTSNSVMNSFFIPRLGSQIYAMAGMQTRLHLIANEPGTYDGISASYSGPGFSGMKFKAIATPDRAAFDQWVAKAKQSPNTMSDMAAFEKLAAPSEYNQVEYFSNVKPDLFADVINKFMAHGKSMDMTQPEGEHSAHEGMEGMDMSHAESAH
# Sequence (P0ABJ3 whole entry partner): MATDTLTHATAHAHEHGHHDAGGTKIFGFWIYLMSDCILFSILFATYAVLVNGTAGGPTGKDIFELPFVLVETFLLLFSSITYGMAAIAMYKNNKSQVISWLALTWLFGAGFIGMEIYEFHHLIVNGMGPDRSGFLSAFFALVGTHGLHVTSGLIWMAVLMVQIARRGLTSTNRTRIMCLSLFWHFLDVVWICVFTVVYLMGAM
# Sequence (P0ABJ6 whole entry partner): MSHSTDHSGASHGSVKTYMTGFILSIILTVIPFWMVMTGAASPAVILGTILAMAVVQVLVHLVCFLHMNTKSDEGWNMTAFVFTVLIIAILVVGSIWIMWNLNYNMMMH
pIC50: −log10 of the molar value.

# compound, pIC50
data = [
    ("CCCCCCCc1cc(O)c2ccccc2[n+]1[O-] [2-n-Heptyl-4-hydroxyquinoline N-oxide]", 4.54),
]
